Target: Cyclin-dependent kinase 7/ cyclin H (Homo sapiens) (UniProt P51946+P50613)
Conditions: at 1 µM
Listing of recorded residual activity by entry.
Write it as a number; the unit % goes unstated.

Some compounds with known residual activity results, for comparison:
compound | observed.value
O=C(O)c1ccc2c3c1cccc3c(=O)n1c3ccccc3nc21 | 100
Oc1ccc(-c2nc(-c3ccc(F)cc3)c(-c3ccncc3)[nH]2)cc1 | 104
COc1ccc(S(=O)(=O)N(CCO)c2ccccc2CN(C)C/C=C/c2ccc(Cl)cc2)cc1 | 102
O=C1Nc2ccccc2/C1=C1/Nc2ccccc2/C1=N\OCCC(O)CO (stereo not given) | 19

Next compound, residual activity to be filled in.
Indicate the recorded residual activity value for this compound: "CC[n+]1c(/C=C/N(C)c2ccccc2)n(-c2ccccc2)c2ccc(-c3nc4ccccc4s3)cc21" 97

###

Molecular target: Glycogen synthase kinase-3 alpha (Homo sapiens) (UniProt P49840)
Sequence (P49840 2-483 limits assumed): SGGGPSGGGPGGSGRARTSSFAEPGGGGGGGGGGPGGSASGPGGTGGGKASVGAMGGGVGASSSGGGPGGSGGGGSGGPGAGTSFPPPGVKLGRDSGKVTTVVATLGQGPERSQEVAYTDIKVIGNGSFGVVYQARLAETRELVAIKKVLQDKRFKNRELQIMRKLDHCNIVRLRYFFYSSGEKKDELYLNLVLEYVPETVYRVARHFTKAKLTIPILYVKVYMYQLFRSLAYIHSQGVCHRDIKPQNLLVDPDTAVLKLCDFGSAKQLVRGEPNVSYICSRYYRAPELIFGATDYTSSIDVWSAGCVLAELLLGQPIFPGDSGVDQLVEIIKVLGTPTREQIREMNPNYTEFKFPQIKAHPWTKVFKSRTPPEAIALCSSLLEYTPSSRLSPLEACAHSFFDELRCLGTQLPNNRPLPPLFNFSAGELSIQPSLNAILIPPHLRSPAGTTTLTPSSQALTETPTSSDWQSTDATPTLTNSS
Conditions: at 1 µM
reported.metric: residual activity (%)
// units = %; emit number, no label

// worked examples, residual activity included
input.smiles | residual activity [%]
Nc1nc(Nc2ccc(S(N)(=O)=O)cc2)nn1C(=S)Nc1c(F)cccc1F | 3
O=c1c2ccccc2[nH]c(=S)n1CCN1CCC(=C(c2ccc(F)cc2)c2ccc(F)cc2)CC1 | 102
O=C(Nc1cccc(Nc2nccc(Nc3cccc(C(F)(F)F)c3)n2)c1)C1CC1 | 94
C[C@@H](N)[C@H]1CC[C@H](C(=O)Nc2ccncc2)CC1 | 75
N#CCCc1ccc2c(c1)-c1[nH]c3ccc([N+](=O)[O-])cc3c1CC(=O)N2 | 1

Tell us which residual activity value is on record for "COc1cc2ncnc(Nc3ccc(O)c(Br)c3)c2cc1OC" 116

Please supply the value of reported residual activity for the item "CCN(CC)C(=O)c1ccc(Nc2nc(OCC3CCCCC3)c3nc[nH]c3n2)cc1" 72

Recall and state the measured residual activity for "Nc1n[nH]c2nnc(-c3c(-c4ccccc4)nn4ccccc34)cc12" . 77

Annotate the compound "Oc1ccc(Nc2nc(-c3ccc(Cl)cc3)cs2)cc1" with its measured residual activity. 97

Tell me measured residual activity for "Oc1c2ccccc2c2c3c(cccc13)N=N2" please. 54

###

Target: CDK3/cyclin E (Homo sapiens) (UniProt P24864+O96020+Q00526)
Conditions: at 10 µM
Entries and their residual activity values follow.
Answer format: numeric, % implied, no suffix.

These solved cases illustrate the format of a correct answer.
input.smiles | observed.value
CC(C)n1cnc2c(NCc3ccccc3)nc(NCCCO)nc21 | 23
CCOc1cc2ncnc(Nc3cccc(Br)c3)c2cc1OCC | 87
CC[n+]1c(/C=C/N(C)c2ccccc2)n(-c2ccccc2)c2ccc(-c3nc4ccccc4s3)cc21 | 90
N#C/C(=C(\N)Sc1ccc(N)cc1)c1ccccc1C(F)(F)F | 86
Cc1cncc2cccc(S(=O)(=O)N3CCCN(C(=O)CN)C[C@H]3C)c12 | 73

Give a short answer stating reported residual activity for "CNc1cc2c(Nc3cccc(Br)c3)ncnc2cn1" . 83

Specify residual activity for "O=C(Nc1cccc(Nc2nccc(Nc3cccc(C(F)(F)F)c3)n2)c1)C1CC1" and stop. 72

Give the reported value of residual activity for this record: "CC(=O)c1ccc(N2CCOCC2)cc1O" 83

###

The following compounds are shown together with reported residual activity values.
Molecular target: Hepatocyte growth factor receptor (Homo sapiens)
Conditions: at 10 µM
Report the value in % with no unit label.

input.smiles | reported.metric | observed.value
N#CC(C#N)=C(N)/C(C#N)=C/c1ccc(O)cc1 | residual activity | 138

Let me know recorded residual activity for "O=c1cc(-c2cccc3c2Sc2ccccc2S3)oc(N2CCOCC2)c1" , thanks. 120

Kindly indicate its recorded residual activity. Item: "O=c1c2ccccc2[nH]c(=S)n1CCN1CCC(=C(c2ccc(F)cc2)c2ccc(F)cc2)CC1" 89

Quick one: give measured residual activity for "Cc1nc2cc3nc(-c4cccs4)cnc3cc2n1C" 91

Return residual activity (reported value) for this compound: "Nc1cccc(-c2cc3c(Oc4cccc(O)c4)ncnc3[nH]2)c1" 22

Answer with the recorded residual activity of "Cc1ccc(S(=O)(=O)/C=C/C#N)cc1" only. 123

###

Molecular target: Ribosomal protein S6 kinase alpha-3 (Homo sapiens) (UniProt P51812)
Sequence (P51812 whole entry): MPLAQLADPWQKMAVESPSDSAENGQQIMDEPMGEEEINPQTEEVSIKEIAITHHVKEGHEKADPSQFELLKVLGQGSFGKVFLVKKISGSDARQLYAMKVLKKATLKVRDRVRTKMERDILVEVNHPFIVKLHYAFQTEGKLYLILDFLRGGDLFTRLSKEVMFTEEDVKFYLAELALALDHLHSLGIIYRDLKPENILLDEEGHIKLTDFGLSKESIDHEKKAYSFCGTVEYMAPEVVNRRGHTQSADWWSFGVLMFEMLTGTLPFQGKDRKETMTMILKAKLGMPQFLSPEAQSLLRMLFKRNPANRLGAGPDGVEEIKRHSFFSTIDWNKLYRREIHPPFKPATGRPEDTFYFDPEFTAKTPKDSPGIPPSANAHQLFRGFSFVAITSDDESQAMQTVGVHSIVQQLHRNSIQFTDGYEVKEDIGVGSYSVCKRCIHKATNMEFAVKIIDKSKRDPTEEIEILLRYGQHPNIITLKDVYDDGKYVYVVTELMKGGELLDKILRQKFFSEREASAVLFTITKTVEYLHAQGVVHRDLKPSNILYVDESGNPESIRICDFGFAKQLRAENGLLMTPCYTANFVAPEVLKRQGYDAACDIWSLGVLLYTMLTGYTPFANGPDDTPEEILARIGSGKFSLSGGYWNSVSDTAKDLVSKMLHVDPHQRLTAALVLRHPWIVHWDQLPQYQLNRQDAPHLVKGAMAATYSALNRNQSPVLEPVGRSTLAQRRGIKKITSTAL
Details: at 1 µM
reported.metric: residual activity

input.smiles | residual activity
O=C1NC(=O)/C(=C/c2ccc3c(c2)OC(F)(F)O3)S1 | 56%

State recorded residual activity with Ribosomal protein S6 kinase alpha-3 (Homo sapiens) (UniProt P51812), entry "Oc1ccc(Nc2nc(-c3ccc(Cl)cc3)cs2)cc1" , no comment. 75%

State recorded residual activity with Ribosomal protein S6 kinase alpha-3 (Homo sapiens) (UniProt P51812), entry "CO[C@@H]1[C@H](N(C)C(=O)c2ccccc2)C[C@H]2O[C@]1(C)n1c3ccccc3c3c4c(c5c6ccccc6n2c5c31)C(=O)NC4" , no comment. 1%

Param request: residual activity | system Ribosomal protein S6 kinase alpha-3 (Homo sapiens) (UniProt P51812) | item "O=C1Nc2cc(Br)ccc2/C1=C1/Nc2ccccc2/C1=N\O" 24%

Write residual activity of "Cn1cc(/C=C2\C(=O)Nc3ccc(S(N)(=O)=O)cc32)c2ccccc21" ; system used: Ribosomal protein S6 kinase alpha-3 (Homo sapiens) (UniProt P51812) 9%

###

Target: Rho-associated protein kinase 1 (Homo sapiens)
Conditions: at 10 µM
Documented residual activity across a set of compounds
The figure you give is taken to be in %; do not add the unit.

Sample answers from the record:
input.smiles | residual activity [%]
O=C1c2ccccc2-[n+]2ccc3c([nH]c4ccccc43)c21 | 115
O=[N+]([O-])c1ccc(-c2nc(-c3ccc(F)cc3)c(-c3ccncc3)[nH]2)cc1 | 118
Cc1ccc(S(=O)(=O)/C=C/C#N)cc1 | 106
N#CCCc1ccc2c(c1)-c1[nH]c3ccc([N+](=O)[O-])cc3c1CC(=O)N2 | 24

Find the measured residual activity of "O=C1Nc2ccc(Br)cc2/C1=C\c1cc2c([nH]1)CCCC2" with Rho-associated protein kinase 1 (Homo sapiens) as test system. 116

System Rho-associated protein kinase 1 (Homo sapiens). Read-out residual activity. Item "Cn1cnc2cc3c(Nc4cccc(Br)c4)ncnc3cc21" . Report value. 110

Report the value of residual activity obtained on Rho-associated protein kinase 1 (Homo sapiens) for "O=Nc1c(-c2c(O)[nH]c3ccccc23)[nH]c2ccccc12" . 92

Give the observed residual activity of "O=C(Nc1cccc(Nc2nccc(Nc3cccc(C(F)(F)F)c3)n2)c1)C1CC1" for Rho-associated protein kinase 1 (Homo sapiens). 127

// fetch residual activity for "O=C1NC(=O)/C(=C/c2ccc3c(c2)OC(F)(F)O3)S1" ; system: Rho-associated protein kinase 1 (Homo sapiens) 116

State residual activity on Rho-associated protein kinase 1 (Homo sapiens). Entry: "CC[n+]1c(/C=C/N(C)c2ccccc2)n(-c2ccccc2)c2ccc(-c3nc4ccccc4s3)cc21" 102

Provide measured residual activity on Rho-associated protein kinase 1 (Homo sapiens) for "CO[C@H]1C[C@@H]2CC[C@@H](C)[C@@](O)(O2)C(=O)C(=O)N2CCCC[C@H]2C(=O)O[C@H]([C@H](C)C[C@@H]2CC[C@@H](O)[C@H](OC)C2)CC(=O)[C@H](C)/C=C(\C)[C@@H](O)[C@@H](OC)C(=O)[C@H](C)C[C@H](C)/C=C/C=C/C=C/1C" please. 140

Using Rho-associated protein kinase 1 (Homo sapiens) as the test system, report measured residual activity of "CC(C)n1cnc2c(NCc3ccccc3)nc(NCCCO)nc21" . 100

Report residual activity under test system Rho-associated protein kinase 1 (Homo sapiens) for "c1ccc(-c2n[nH]cc2-c2ccnc3ccccc23)nc1" . 127

Enter residual activity (test system Rho-associated protein kinase 1 (Homo sapiens)) for "CCC(=O)Nc1ccc2ncnc(Nc3cccc(Br)c3)c2c1" 120

###

// reported residual activity per item
Target: Insulin receptor (Homo sapiens)
Conditions: at 10 µM
// units = %; emit number, no label

Examples with answers:
molecule | reported.metric | unit | observed.value
COc1cc2ncnc(Nc3ccc(O)c(Br)c3)c2cc1OC | residual activity | % | 91
O=C1Nc2ccccc2/C1=C1/Nc2ccccc2/C1=N\OCCC(O)CO (stereo unspecified) | residual activity | % | 4
CC(=O)c1ccc(N2CCOCC2)cc1O | residual activity | % | 97
c1ccc(-c2n[nH]cc2-c2ccnc3ccccc23)nc1 | residual activity | % | 105
CC(C)n1cnc2/c(=N/c3cccc(Cl)c3)nc(NCCO)[nH]c21 | residual activity | % | 17

Okay, now this molecule:
# return recorded residual activity for entry "Oc1ccc(-c2nc(-c3ccc(F)cc3)c(-c3ccncc3)[nH]2)cc1" 90

###

Molecular target: Ephrin type-B receptor 2 (Homo sapiens) (UniProt P29323)
Sequence (P29323 whole entry): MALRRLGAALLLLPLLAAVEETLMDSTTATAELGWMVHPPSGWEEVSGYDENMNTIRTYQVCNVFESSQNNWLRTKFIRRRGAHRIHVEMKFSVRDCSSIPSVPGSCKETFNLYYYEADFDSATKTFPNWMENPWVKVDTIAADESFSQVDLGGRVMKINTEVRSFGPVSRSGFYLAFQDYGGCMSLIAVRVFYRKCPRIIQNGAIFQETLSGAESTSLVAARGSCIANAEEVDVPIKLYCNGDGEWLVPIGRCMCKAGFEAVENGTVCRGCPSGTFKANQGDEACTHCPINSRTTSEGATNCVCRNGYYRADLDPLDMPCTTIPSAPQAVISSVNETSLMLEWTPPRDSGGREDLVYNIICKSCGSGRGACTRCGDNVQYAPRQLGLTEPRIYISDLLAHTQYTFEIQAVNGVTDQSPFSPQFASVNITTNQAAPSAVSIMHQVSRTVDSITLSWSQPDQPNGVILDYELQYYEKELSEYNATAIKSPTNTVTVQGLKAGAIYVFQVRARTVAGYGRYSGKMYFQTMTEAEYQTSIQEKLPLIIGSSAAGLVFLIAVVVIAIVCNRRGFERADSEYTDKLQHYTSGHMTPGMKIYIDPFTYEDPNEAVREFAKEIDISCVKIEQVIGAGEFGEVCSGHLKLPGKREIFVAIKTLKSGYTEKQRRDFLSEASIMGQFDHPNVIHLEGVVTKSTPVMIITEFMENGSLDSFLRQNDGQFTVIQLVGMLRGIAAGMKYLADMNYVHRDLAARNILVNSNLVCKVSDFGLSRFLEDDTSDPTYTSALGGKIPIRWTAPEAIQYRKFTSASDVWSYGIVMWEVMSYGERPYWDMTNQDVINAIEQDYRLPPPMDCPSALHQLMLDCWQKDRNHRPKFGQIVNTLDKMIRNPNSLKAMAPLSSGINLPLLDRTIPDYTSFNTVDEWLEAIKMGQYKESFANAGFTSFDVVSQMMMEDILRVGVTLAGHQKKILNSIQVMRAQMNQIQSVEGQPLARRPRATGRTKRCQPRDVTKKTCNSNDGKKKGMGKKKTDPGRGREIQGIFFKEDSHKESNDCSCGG
Settings: at 10 µM
reported.metric: residual activity

input.smiles | residual activity
CO[C@H]1[C@@H](OC)C[C@H](C)[C@@H](OC)C2=CC(=O)C=C(NC(=O)/C(C)=C/C=C/[C@H](OC)[C@@H](OC(N)=O)/C(C)=C/[C@@H]1C)C2=O | 128%

Please supply the value of reported residual activity for the item "COc1cc2ncnc(Nc3ccc(Oc4ccccc4)cc3)c2cc1OC" 109%

Please supply the value of reported residual activity for the item "CCN(CC)C(=O)c1ccc(Nc2nc(OCC3CCCCC3)c3nc[nH]c3n2)cc1" 32%

Return residual activity for the following compound: "O=C1Nc2ccc(Br)cc2/C1=C\c1cc2c([nH]1)CCCC2" 115%

Query residual activity for "O=[N+]([O-])c1ccc(-c2nc(-c3ccc(F)cc3)c(-c3ccncc3)[nH]2)cc1" 109%

Give recorded residual activity. "O=C1c2ccccc2-[n+]2ccc3c([nH]c4ccccc43)c21" 116%
